The measured values listed here are drawn from paper PMC7589200.

# TARGET UNDER TEST: recombinant human XT-I (Homo sapiens, UniProt Q86Y38)
# PROTOCOL DETAILS: NP library inhibitor screening, UPLC/ESI-MS/MS XT-I assay
# Format: biochemical
# SETUP CONDITIONS: Table S1; 50 μM inhibitor; relative to negative control containing DMSO; technical duplicates
Where a name gives a salt, the structure may show the parent alone.
Below, each of the molecules is paired with its reported remaining activity at 50 µM value.
REPORTED METRIC: remaining activity at 50 µM (%)

| MOLECULE | MEASURED |
| --- | --- |
| C[C@@H]1C(=O)O[C@H]2C[C@@]34[C@H]5C[C@@H](C(C)(C)C)[C@]36[C@@H](OC(=O)[C@@H]6O)O[C@@]4(C(=O)O5)[C@]21O [Compound 95, Ginkgolide A] | 150 |
| OC[C@H]1O[C@@H](O[C@@H]2[C@@H](CO)OC(O)(CO)[C@H]2O)[C@H](O)[C@@H](O)[C@H]1O (mixture of isomers) | 122 |
| CC[C@H]1OC(=O)[C@H](C)[C@@H](O[C@H]2C[C@@](C)(OC)[C@@H](O)[C@H](C)O2)[C@H](C)[C@@H](O[C@@H]2O[C@H](C)C[C@H](N(C)C)[C@H]2O)[C@](C)(O)C[C@@H](C)C(=O)[C@H](C)[C@@H](O)[C@]1(C)O | 105 |
| CC1=C(O)C(=O)C=C2C1=CC=C1[C@@]2(C)CC[C@@]2(C)[C@@H]3C[C@](C)(C(=O)O)CC[C@]3(C)CC[C@]12C | 38 |
| C[C@H](CCC(=O)O)[C@H]1CC[C@H]2[C@@H]3[C@@H](O)C[C@@H]4C[C@H](O)CC[C@]4(C)[C@H]3CC[C@]12C | 98 |
| C=C1C(=O)O[C@@H]2/C=C(\C)CC/C=C(\C)CC[C@@H]12 [Compound 14, Costunolide] | 121 |
| C[C@H](CCC(=O)O)[C@H]1CC[C@H]2[C@@H]3[C@H](O)C[C@@H]4C[C@H](O)CC[C@]4(C)[C@H]3CC[C@]12C | 113 |
| CO[C@H]1/C=C/O[C@@]2(C)Oc3c(C)c(O)c4c(c3C2=O)C2=NC3(CCN(CC(C)C)CC3)NC2=C(NC(=O)/C(C)=C\C=C\[C@H](C)[C@H](O)[C@@H](C)[C@@H](O)[C@@H](C)[C@H](OC(C)=O)[C@@H]1C)C4=O | 112 |
| CC[C@]1(O)C[C@H]2CN(CCc3c([nH]c4ccccc34)[C@@](C(=O)OC)(c3cc4c(cc3OC)N(C=O)[C@H]3[C@@](O)(C(=O)OC)[C@H](OC(C)=O)[C@]5(CC)C=CCN6CC[C@]43[C@@H]65)C2)C1 [Compound 35, Vincristine sulfate] | 87 |
| COc1cccc2c1C(=O)c1c(O)c3c(c(O)c1C2=O)C[C@@](O)(C(=O)CO)C[C@@H]3O[C@H]1C[C@H](N)[C@@H](O)[C@H](C)O1 [Compound 2, Epirubicin HCl] | 95 |
| C[C@@H]1CN(c2c(F)c(N)c3c(=O)c(C(=O)O)cn(C4CC4)c3c2F)C[C@H](C)N1 | 89 |
| C[C@@H](O)[C@H]1C(=O)N2C(C(=O)O)=C(S[C@@H]3CN[C@H](C(=O)N(C)C)C3)[C@H](C)[C@H]12 | 107 |
| C[C@H]1[C@H](NC(=O)/C(=N\OC(C)(C)C(=O)O)c2csc(N)n2)C(=O)N1S(=O)(=O)O | 94 |
| Nc1ccc(S(=O)(=O)Nc2ncccn2)cc1 | 108 |
| O=c1c(-c2ccc(O)cc2)coc2cc(O)ccc12 | 115 |
| Nc1ncnc2c1ncn2[C@@H]1O[C@H](CO)[C@@H](O)[C@@H]1O | 103 |
| C[C@@H]1C/C=C/C=C/C=C/C=C/[C@H](O[C@@H]2O[C@H](C)[C@@H](O)[C@H](N)[C@@H]2O)C[C@@H]2O[C@](O)(C[C@@H](O)C[C@H]3O[C@@H]3/C=C/C(=O)O1)C[C@H](O)[C@H]2C(=O)O | 95 |
| CO[C@H]1/C=C/O[C@@]2(C)Oc3c(C)c(O)c4c(O)c(c(/C=N/N5CCN(C)CC5)c(O)c4c3C2=O)NC(=O)/C(C)=C\C=C\[C@H](C)[C@H](O)[C@@H](C)[C@@H](O)[C@@H](C)[C@H](OC(C)=O)[C@@H]1C | 77 |
| N[C@@H](C(=O)N[C@@H]1C(=O)N2C(C(=O)O)=C(Cl)CS[C@H]12)c1ccccc1 | 71 |
| Cc1noc(NS(=O)(=O)c2ccc(N)cc2)c1C | 95 |
| CCCSc1ccc2nc(NC(=O)OC)[nH]c2c1 | 77 |
| NC(=O)N/N=C/c1ccc([N+](=O)[O-])o1 | 104 |

* * *

# TARGET UNDER TEST: recombinant human XT-I (Homo sapiens)
# PROTOCOL DETAILS: NP library inhibitor screening, UPLC/ESI-MS/MS XT-I assay
# Assay type: biochemical
# SETUP CONDITIONS: Table S1; 50 μM inhibitor; relative to negative control containing DMSO; technical duplicates
REPORTED METRIC: remaining activity at 50 µM (%)

| COMPOUND | TARGET UNDER TEST | REPORTED METRIC | MEASURED |
| --- | --- | --- | --- |
| Nc1[nH]c(=O)ncc1F | recombinant human XT-I (Homo sapiens) | remaining activity at 50 µM | 93 |
| CO[C@H]1/C=C/O[C@@]2(C)Oc3c(C)c(O)c4c(O)c(c5c(nc6cc(C)ccn65)c4c3C2=O)NC(=O)/C(C)=C\C=C\[C@H](C)[C@H](O)[C@@H](C)[C@@H](O)[C@@H](C)[C@H](OC(C)=O)[C@@H]1C | recombinant human XT-I (Homo sapiens) | remaining activity at 50 µM | 83 |
| CCN1CCN(C(=O)N[C@@H](C(=O)N[C@@H]2C(=O)N3C(C(=O)O)=C(CSc4nnnn4C)CS[C@H]23)c2ccc(O)cc2)C(=O)C1=O | recombinant human XT-I (Homo sapiens) | remaining activity at 50 µM | 83 |
| COc1c2occc2cc2ccc(=O)oc12 | recombinant human XT-I (Homo sapiens) | remaining activity at 50 µM | 107 |
| CC(=O)O[C@@]12CO[C@@H]1C[C@H](O)[C@@]1(C)C(=O)[C@H](O)C3=C(C)[C@@H](OC(=O)[C@H](O)[C@@H](NC(=O)OC(C)(C)C)c4ccccc4)C[C@@](O)([C@@H](OC(=O)c4ccccc4)[C@H]21)C3(C)C | recombinant human XT-I (Homo sapiens) | remaining activity at 50 µM | 104 |
| CCc1cc(C(N)=S)ccn1 [Compound 85, Ethionamide] | recombinant human XT-I (Homo sapiens) | remaining activity at 50 µM | 130 |

* * *

# TARGET UNDER TEST: recombinant human XT-I (Homo sapiens)
# PROTOCOL DETAILS: NP library inhibitor screening, UPLC/ESI-MS/MS XT-I assay
# Assay type: biochemical
# SETUP CONDITIONS: Table S1; 50 μM inhibitor; relative to negative control containing DMSO; technical duplicates
Recorded XT-I Activity [%], one value per entry.
REPORTED METRIC: XT-I Activity [%] (%)

| COMPOUND | REPORTED METRIC | MEASURED |
| --- | --- | --- |
| CC(C)[C@H](N)C(=O)OCCOCn1cnc2c(=O)nc(N)[nH]c21.Cl [Compound 32, Valaciclovir HCl] | XT-I Activity [%] | 74 |
| COc1cccc2c1C(=O)c1c(O)c3c(c(O)c1C2=O)C[C@@](O)(C(=O)CO)C[C@@H]3O[C@H]1C[C@H](N)[C@H](O)[C@H](C)O1.Cl [Compound 67, Doxorubicin (Adriamycin) HCl] | XT-I Activity [%] | 113 |
| CC(=O)[C@H]1CC[C@H]2[C@@H]3CC=C4C[C@@H](O)CC[C@]4(C)[C@H]3CC[C@]12C [Compound 11, Pregnenolone] | XT-I Activity [%] | 95 |
| NC(=O)c1cccnc1 [Compound 54, Nicotinamide (Vitamin B3)] | XT-I Activity [%] | 116 |
| Cl.N=c1ccn2c(n1)O[C@H]1[C@H](O)[C@@H](CO)O[C@H]12 [Compound 92, Cyclocytidine HCl] | XT-I Activity [%] | 142 |
| C[C@@H](O)[C@H]1C(=O)N2C(C(=O)O)=C(S[C@@H]3CN[C@H](CNS(N)(=O)=O)C3)[C@H](C)[C@H]12.O [Compound 4, Doripenem Hydrate] | XT-I Activity [%] | 86 |

* * *

# reported remaining activity at 50 µM; entries follow
# TARGET UNDER TEST: recombinant human XT-I (Homo sapiens)
# Sequence (Q86Y38 252-959 limits assumed): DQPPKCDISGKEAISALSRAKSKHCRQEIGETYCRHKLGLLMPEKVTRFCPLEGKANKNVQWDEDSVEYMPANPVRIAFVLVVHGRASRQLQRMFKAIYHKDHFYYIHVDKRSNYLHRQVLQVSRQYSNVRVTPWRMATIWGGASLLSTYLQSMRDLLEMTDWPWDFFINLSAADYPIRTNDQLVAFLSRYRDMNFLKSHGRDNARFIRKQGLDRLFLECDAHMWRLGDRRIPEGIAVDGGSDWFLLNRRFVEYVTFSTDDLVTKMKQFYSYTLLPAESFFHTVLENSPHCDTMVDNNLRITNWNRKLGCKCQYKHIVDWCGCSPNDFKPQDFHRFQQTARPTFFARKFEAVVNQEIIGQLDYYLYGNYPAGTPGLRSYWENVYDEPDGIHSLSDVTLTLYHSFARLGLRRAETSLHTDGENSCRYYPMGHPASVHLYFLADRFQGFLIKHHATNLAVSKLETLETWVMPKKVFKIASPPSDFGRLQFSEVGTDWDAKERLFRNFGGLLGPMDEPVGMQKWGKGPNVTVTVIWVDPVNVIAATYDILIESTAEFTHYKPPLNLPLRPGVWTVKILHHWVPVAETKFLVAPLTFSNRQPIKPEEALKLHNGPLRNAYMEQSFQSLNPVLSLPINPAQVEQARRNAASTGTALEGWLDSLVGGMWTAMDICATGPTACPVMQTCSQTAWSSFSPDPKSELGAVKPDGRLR
# PROTOCOL DETAILS: NP library inhibitor screening, UPLC/ESI-MS/MS XT-I assay
# Type: biochemical
# SETUP CONDITIONS: Table S1; 50 μM inhibitor; relative to negative control containing DMSO; technical duplicates
REPORTED METRIC: remaining activity at 50 µM (%)

| MOLECULE | REPORTED METRIC | MEASURED |
| --- | --- | --- |
| Clc1ccc(COC(Cn2ccnc2)c2ccc(Cl)cc2Cl)c(Cl)c1 (stereo not drawn) [Compound 88, Miconazole Nitrate] | remaining activity at 50 µM | 149 |
| O=C(O)c1cccnc1 [Compound 19, Nicotinic Acid] | remaining activity at 50 µM | 126 |
| CCCCCCCCCC(=O)N[C@@H](Cc1c[nH]c2ccccc12)C(=O)N[C@H](CC(N)=O)C(=O)N[C@@H](CC(=O)O)C(=O)N[C@@H]1C(=O)NCC(=O)N[C@@H](CCCN)C(=O)N[C@@H](CC(=O)O)C(=O)N[C@H](C)C(=O)N[C@@H](CC(=O)O)C(=O)NCC(=O)N[C@H](CO)C(=O)N[C@@H]([C@H](C)CC(=O)O)C(=O)N[C@@H](CC(=O)c2ccccc2N)C(=O)O[C@@H]1C [Compound 80, Daptomycin] | remaining activity at 50 µM | 86 |
| C[C@@H](c1ncncc1F)[C@](O)(Cn1cncn1)c1ccc(F)cc1F [Compound 70, Voriconazole] | remaining activity at 50 µM | 94 |
| Nc1ncnc2c1ncn2[C@@H]1O[C@H](CO)[C@@H](O)[C@H]1O [Compound 61, Adenosine] | remaining activity at 50 µM | 103 |
| Nc1ccc(S(N)(=O)=O)cc1 [Compound 51, Sulfanilamide] | remaining activity at 50 µM | 118 |
